study.system: T1, MHC class I allele A*0101 (bound via biotin to streptavidin-coated plate)
T1 construct: iTopia MHC class I monomer on the plate; placeholder peptide and b2M removed, then reconstituted with test peptide and fresh b2M; also called A1; HLA A1
experiment.notes: iTopia peptide binding assay
Catalogue of binders with associated % of positive control peptide binding

[
  {
    "binder": "IVPPEDERQ (also called Peptide No 92) [5T4 9 mer peptide 92 IVPPEDERQ]",
    "% of positive control peptide binding [%]": 6
  },
  {
    "binder": "QCPALCECS (also called Peptide No 31) [5T4 9 mer peptide 31 QCPALCECS]",
    "% of positive control peptide binding [%]": 3
  },
  {
    "binder": "VSSSSPTSS (also called Peptide No 15) [5T4 9 mer peptide 15 VSSSSPTSS]",
    "% of positive control peptide binding [%]": 3
  },
  {
    "binder": "PLADLSPFA (also called Peptide No 77) [5T4 9 mer peptide 77 PLADLSPFA]",
    "% of positive control peptide binding [%]": 1
  }
]

// provenance: patent US20090280138A1
